System: OVCAR-5
assayMethodText: NCI tumour cell line growth inhibition, 48 h
The source made the active and inactive calls. Rule as the data show it: active = GI50 up to about 1.1 µM and inactive = higher.
// values below are reported GI50

O=C(c1ccccc1)c1ccc2[nH]c(-c3c(Cl)c(Cl)c(Cl)c(Cl)c3C(=O)N/N=C\C=C\c3ccccc3)nc2c1
> 100 µM (inactive)

Lab note: COc1cc(-c2c(C(C)=O)c(-c3ccccc3)n(C3OC(COC(C)=O)C(OC(C)=O)C(OC(C)=O)C3OC(C)=O)c(=S)c2C#N)ccc1O (centres undefined) gave GI50 of > 100 µM (inactive)

Lab note: `O=C(N/C(=C\c1cc(Cl)ccc1Cl)c1nc2c(O)nc(S)nc2[nH]1)c1ccccc1` gave GI50 of > 100 µM (inactive)

Lab note: `COc1cccc(/C=C2\SC(=S)N(/C=C3\C(=O)Oc4ccccc4C3=O)C2=O)c1O` gave GI50 of > 100 µM (inactive)

----------
Test system: HT-29
assayMethodText: NCI tumour cell line growth inhibition, 48 h
The source made the active and inactive calls. Cut-off read from the data, not from the text of the source: active = GI50 up to about 1.1 µM and inactive = higher.
Response enum: active, inactive

Req: What was the test verdict on `O=C1c2cc(CCl)sc2C(=O)c2ccsc21` ?
Resp: inactive

----------
Tested on: A498
assayMethodText: NCI tumour cell line growth inhibition, 48 h
Active and inactive are the calls of the source. No stated cut-off is given here; in the data, active = GI50 up to about 1.1 µM and inactive = higher.
Response enum: active, inactive

Req: What was the test verdict on CCC(CCC(C)C1CCC2C3CC=C4CC(OC5OC(CO)C(O)C(O)C5O)CCC4(C)C3CCC12C)C(C)C (stereo not drawn) ?
Resp: inactive

Req: What was the test verdict on CC1OC(OC2C(OC(=O)[C@]34CCC(C)(C)C[C@H]3C3=CC[C@@H]5[C@@]6(C)CC[C@H](OC7OC(CO)C(O)C(O)C7OC7OC(CO)C(O)C(O)C7O)C(C)(C)[C@@H]6CC[C@@]5(C)[C@]3(C)CC4)OCC(O)C2O)C(O)C(O)C1OC1OCC(O)C(O)C1O (stereo partly drawn) ?
Resp: inactive

Req: What was the test verdict on COC(=O)C1(C)CCCC2(C)c3cc(OC)ccc3C(=O)C(Br)C12 (stereo not drawn) ?
Resp: inactive

Req: What was the test verdict on `O=C1CSC(/C(=C\c2ccc(Cl)cc2)c2nc3ccccc3[nH]2)=N1` ?
Resp: inactive

Req: What was the test verdict on `O=[N+]([O-])c1ccc(N/N=C/CC(O)(C(F)(F)F)C(F)(F)F)c([N+](=O)[O-])c1` ?
Resp: inactive

Req: What was the test verdict on `CN(C)c1ccc(/C=C2\C=Cc3ccccc32)cc1` ?
Resp: inactive

Req: What was the test verdict on `O=[N+]([O-])c1oc2ccc3ccccc3c2c1CCO` ?
Resp: active

Req: What was the test verdict on `O=[N+]([O-])c1ccc(-c2nn3c(C45CC6CC(CC(C6)C4)C5)nnc3s2)c(Cl)c1` ?
Resp: inactive

----------
Test system: DMS-273
assayMethodText: NCI tumour cell line growth inhibition, 48 h
Activity calls are given as the source filed them. Cut-off read from the data, not from the text of the source: active = GI50 up to about 1.1 µM and inactive = higher.
Response enum: active, inactive

CC[C@@]1(OC(=O)CCC(=O)O)C(=O)OCc2c1cc1n(c2=O)Cc2cc3ccccc3nc2-1
active

Req: What was the test verdict on N#CC1=C(N)Oc2c(ccc3cccnc23)C1c1ccccc1 (stereo not given) ?
Resp: active

Req: What was the test verdict on `NC1=NS(=O)(=O)Nc2nc(-c3cccs3)[nH]c21` ?
Resp: inactive

Req: What was the test verdict on `CCOC(=O)NC(=O)c1cn(CCCOC(=O)CCCCCCCCC(=O)OCCCn2cc(C(=O)NC(=O)OCC)c(=O)n(C)c2=O)c(=O)n(C)c1=O` ?
Resp: inactive
